Reference source: paper PMC9490236

- Test system: Caco-2 cells
- protocolNotes: Caco-2 permeability assay (apical to basolateral)
- Format: in vitro ADME, human
- measurementContext: Caco-2
Where a SMILES comes first, the peptide text is derived from it. [ ]: non-standard residue; d: D form. dNMeL = CN[C@H](CC(C)C)C(=O)O
As shown below, each of these compounds has a reported Caco_R3 value.

# compound, Caco_R3
rows = [
    ("CC(C)C[C@@H]1NC(=O)[C@@H]2CCCN2C(=O)[C@@H](Cc2ccccc2)NC(=O)[C@H](C)N(C)C(=O)[C@H](CC(C)C)NC(=O)[C@H](CC(C)C)N(C)C(=O)[C@@H](C)NC(=O)[C@@H](CC(C)C)NC(=O)[C@@H]2CCCN2C(=O)[C@@H](Cc2ccccc2)NC1=O (single isomer, unassigned) [Design D10.2.p1]", 11.73),
    ("CC[C@@H](C)[C@H]1NC(=O)[C@@H](CC(C)C)NC(=O)[C@@H](CC(C)C)N(C)C(=O)[C@@H]2CCCN2C(=O)[C@@H](C(C)C)NC(=O)[C@@H](CC(C)C)NC(=O)[C@@H](CC(C)C)N(C)C(=O)[C@@H]2CCCN2C1=O [Design D8.3.p2, DLEU DVAL PRO *DLEU DLEU DILE PRO *DLEU] (cyclo(P[dNMeL][dL][dI]P[dNMeL][dL][dV]))", 1.54),
]

Req: Provide Caco-2 cells Caco_R3 reading for CC(C)C[C@@H]1C(=O)N(C)[C@@H](CC(C)C)C(=O)N2CCC[C@@H]2C(=O)N[C@H](CC(C)C)C(=O)N[C@H](C)C(=O)N2CCC[C@@H]2C(=O)N2CCC[C@H]2C(=O)N[C@@H](C)C(=O)N[C@H](Cc2ccccc2)C(=O)N[C@H](CC(C)C)C(=O)N[C@@H](C(C)C)C(=O)N1C (single isomer, unassigned) [Design D11.9.p2] .
Resp: 4.02

---

- protocolNotes: Pharmacokinetics and oral bioavailability of D11.3 in male Swiss albino mice (IV, PO, SQ)
- Format: in vivo
- measurementContext: male, Swiss albino, mouse, plasma; IV 1.00 mg/kg
Where a SMILES comes first, the peptide text is derived from it. [ ]: non-standard residue; d: D form. dNMeI = CC[C@@H](C)[C@@H](NC)C(=O)O; NMeL = CN[C@@H](CC(C)C)C(=O)O
parameter: AUC(0-inf) (ng·h/mL)
Report the figure in ng·h/mL without appending any unit label.

Req: Quick one: give measured AUC(0-inf) for CC[C@@H](C)[C@H]1NC(=O)[C@H]([C@@H](C)CC)NC(=O)[C@H](CC(C)C)N(C)C(=O)[C@H]2CCCN2C(=O)[C@@H]([C@H](C)CC)NC(=O)[C@@H]([C@H](C)CC)N(C)C(=O)[C@H](CC(C)C)NC(=O)[C@H]2CCCN2C(=O)[C@@H]2CCCN2C(=O)[C@H](C(C)C)NC(=O)[C@H]2CCCN2C1=O [Design D11.3] (cyclo(I[dI][dP]VP[dP]L[dNMeI][dI][dP][NMeL]))
Resp: 7190

---

As shown below, each of these compounds has a reported Caco_R1 value.
- Tested on: Caco-2 cells
- protocolNotes: Caco-2 permeability assay (apical to basolateral)
- Assay type: in vitro ADME, human
- measurementContext: Caco-2
Where a SMILES comes first, the peptide text is derived from it. [ ]: non-standard residue; d: D form. NMeL = CN[C@@H](CC(C)C)C(=O)O; dNMeL = CN[C@H](CC(C)C)C(=O)O; NMeA = CN[C@@H](C)C(=O)O; dNMeA = CN[C@H](C)C(=O)O

Example cases with answers are listed next.
# compound, Caco_R1
records = [
    ("CC(C)C[C@@H]1NC(=O)[C@H]2CCCN2C(=O)[C@@H]2CCCN2C(=O)[C@H](CC(C)C)NC(=O)[C@@H](CC(C)C)NC(=O)[C@@H](C)N(C)C(=O)[C@@H](C)N(C)C(=O)[C@@H](C(C)C)NC1=O [Design D8.6, LEU PRO DPRO LEU DVAL *DALA *DALA DLEU] (cyclo(LP[dP]L[dV][dNMeA][dNMeA][dL]))", 0.86),
    ("CC[C@@H](C)[C@H]1NC(=O)[C@H](C)N(C)C(=O)[C@H]([C@@H](C)CC)NC(=O)[C@H]2CCCN2C(=O)[C@H](CC(C)C)N(C)C(=O)[C@@H](C(C)C)NC(=O)[C@H](C)N(C)C(=O)[C@H]([C@@H](C)CC)NC(=O)[C@@H](CC(C)C)NC(=O)[C@@H]2CCCN2C(=O)[C@H]2CCCN2C1=O [Design D11.10] (cyclo([dL]I[NMeA][dV][NMeL][dP]I[NMeA][dI][dP]P))", 4.35),
]

Req: Quick one: give measured Caco_R1 for CC[C@@H](C)[C@H]1NC(=O)[C@H](CC(C)C)N(C)C(=O)[C@H]2CCCN2C(=O)[C@H](CC(C)C)NC(=O)[C@H](Cc2ccccc2)N(C)C(=O)[C@H](CC(C)C)N(C)C(=O)[C@@H](C(C)C)NC(=O)[C@H](C)NC(=O)[C@H]2CCCN2C(=O)[C@@H]2CCCN2C1=O [Design D10.17.p2]
Resp: 12.57

Req: Quick one: give measured Caco_R1 for CC[C@H](C)[C@@H]1NC(=O)[C@@H](CC(C)C)N(C)C(=O)[C@H](CC(C)C)N(C)C(=O)[C@@H](Cc2ccccc2)NC(=O)[C@@H](CC(C)C)N(C)C(=O)[C@H]2CCCN2C(=O)[C@H]2CCCN2C(=O)[C@@H]2CCCN2C(=O)[C@@H](C(C)C)NC(=O)[C@@H]2CCCN2C(=O)[C@H](C)NC1=O [Design D11.11] (cyclo(AP[dV]P[dP][dP][dNMeL][dF][NMeL][dNMeL]I))
Resp: 2.88

Req: Quick one: give measured Caco_R1 for CC[C@H](C)[C@@H]1NC(=O)[C@@H](C(C)C)NC(=O)[C@@H]2CCCN2C(=O)[C@@H](CC(C)C)N(C)C(=O)[C@@H](C(C)C)NC(=O)[C@H](CC(C)C)N(C)C(=O)[C@H]2CCCN2C(=O)[C@@H](C)NC(=O)[C@H](Cc2ccccc2)N(C)C(=O)[C@H]2CCCN2C1=O (single isomer, unassigned) [Design D10.3.p1]
Resp: 1.3

Req: Quick one: give measured Caco_R1 for CC(C)C[C@@H]1NC(=O)[C@@H]2CCCN2C(=O)[C@@H](Cc2ccccc2)NC(=O)[C@H](C)N(C)C(=O)[C@H](CC(C)C)NC(=O)[C@H](CC(C)C)N(C)C(=O)[C@@H](C)NC(=O)[C@@H](CC(C)C)NC(=O)[C@@H]2CCCN2C(=O)[C@@H](Cc2ccccc2)NC1=O (single isomer, unassigned) [Design D10.2.p1]
Resp: 8.83

---

- protocolNotes: in vitro
- measurementContext: PAMPA, PAMPA_Papp_Avg
Where a SMILES comes first, the peptide text is derived from it. [ ]: non-standard residue; d: D form. NMeL = CN[C@@H](CC(C)C)C(=O)O; dNMeL = CN[C@H](CC(C)C)C(=O)O; NMeA = CN[C@@H](C)C(=O)O
parameter: Papp (×10⁻⁶ cm/s)
Report the figure in ×10⁻⁶ cm/s without appending any unit label.

# compound, Papp / ×10⁻⁶ cm/s
records = [
    ("CC[C@@H](C)[C@H]1NC(=O)[C@@H](Cc2ccccc2)NC(=O)[C@@H](CC(C)C)NC(=O)[C@@H]2CCCN2C(=O)[C@H]2CCCN2C(=O)[C@H](CC(C)C)NC(=O)[C@H](CC(C)C)NC(=O)[C@@H](CC(C)C)N(C)C(=O)[C@H](C)N(C)C(=O)[C@H]2CCCN2C1=O [Design D10.34] (cyclo([dL][dF][dI][dP][NMeA][dNMeL]LL[dP]P))", 4.51),
]

Req: Quick one: give measured Papp for CC[C@@H](C)[C@H]1NC(=O)[C@@H]2CCCN2C(=O)[C@@H](Cc2ccccc2)NC(=O)[C@H](CC(C)C)N(C)C(=O)[C@H](C)NC(=O)[C@H]2CCCN2C(=O)[C@@H]2CCCN2C(=O)[C@H](CC(C)C)NC(=O)[C@H](CC(C)C)N(C)C(=O)[C@H](C)N(C)C1=O [Design D10.26] (cyclo(A[NMeL][dF]P[dI][NMeA][NMeL]LP[dP]))
Resp: 1.51

---

- measurementContext: PAMPA
Where a SMILES comes first, the peptide text is derived from it. [ ]: non-standard residue; d: D form. dNMeF = CN[C@H](Cc1ccccc1)C(=O)O; NMeL = CN[C@@H](CC(C)C)C(=O)O; dNMeL = CN[C@H](CC(C)C)C(=O)O; dNMeA = CN[C@H](C)C(=O)O
parameter: PAMPA_R3
When you answer, write just the number.

# compound, PAMPA_R3
data = [
    ("CC[C@H](C)[C@@H]1NC(=O)[C@H](Cc2ccccc2)N(C)C(=O)[C@H](CC(C)C)N(C)C(=O)[C@@H](C(C)C)NC(=O)[C@@H](C)NC(=O)[C@@H]2CCCN2C(=O)[C@@H](CC(C)C)NC(=O)[C@@H]2CCCN2C(=O)[C@H](C)NC1=O [Design D9.6, PRO DALA DVAL *LEU *PHE ILE ALA PRO DLEU]", "1.96E-06"),
]

Req: Quick one: give measured PAMPA_R3 for CC(C)C[C@@H]1NC(=O)[C@H](CC(C)C)N(C)C(=O)[C@H]2CCCN2C(=O)[C@@H](C)NC(=O)[C@@H](C)N(C)C(=O)[C@@H](C(C)C)NC(=O)[C@@H](CC(C)C)N(C)C(=O)[C@@H]2CCCN2C1=O [Design D8.30, DALA DPRO *LEU LEU PRO *DLEU DVAL *DALA] (cyclo(LP[dNMeL][dV][dNMeA][dA][dP][NMeL]))
Resp: 4.25E-06

Req: Quick one: give measured PAMPA_R3 for CC(C)C[C@H]1NC(=O)[C@@H](C)NC(=O)[C@@H](C)NC(=O)[C@H]2CCCN2C(=O)[C@@H]2CCCN2C(=O)[C@H]2CCCN2C(=O)[C@@H](C)NC(=O)[C@@H](Cc2ccccc2)N(C)C(=O)[C@H]2CCCN2C(=O)[C@@H](CC(C)C)NC(=O)[C@@H](CC(C)C)NC1=O [Design D11.25] (cyclo([dP][dA][dA][dL][dL][dL][dP][dNMeF][dA][dP]P))
Resp: 3.97E-07
